# System: green peach aphid (Myzus persicae)
# Method Notes: Myzus persicae spray test
# Assay type: in vivo
# Assay Setup: 120 h, application rate 500 g/ha, after 5 days
Parameter Measured: mortality at 500 g/ha (%)

{"columns": ["Test Smiles", "Measured Target", "Experimental Result"],
 "data": [
  ["Cc1nc([C@H](C)NC(=O)c2cc(Cl)cc(S(=O)(=O)C(F)F)c2)n(-c2ccc(Cl)cn2)n1", "green peach aphid (Myzus persicae)", 90],
  ["CSc1cc(C#N)cc(C(=O)N[C@@H](C)c2ncnn2-c2ccc(C#N)cn2)c1", "green peach aphid (Myzus persicae)", 100],
  ["CCc1nc([C@H](C)NC(=O)c2cc(Cl)cc(S(C)(=O)=O)c2)n(-c2ccc(C#N)cn2)n1", "green peach aphid (Myzus persicae)", 100],
  ["COc1nc([C@H](C)NC(=O)c2cc(Cl)cc(S(C)(=O)=O)c2)n(-c2ccc(C#N)cn2)n1", "green peach aphid (Myzus persicae)", 90],
  ["C[C@H](NC(=O)c1csc(Cl)c1)c1ncnn1-c1ncccn1", "green peach aphid (Myzus persicae)", 90],
  ["C[C@H](NC(=O)c1cc(C#N)cc(S(C)(=O)=O)c1)c1ncnn1-c1ccc(C#N)cn1", "green peach aphid (Myzus persicae)", 90],
  ["C[C@H](NC(=O)c1cc(OC(F)(F)F)cc(C2CC2)c1)c1ncnn1-c1ccc(Cl)cn1", "green peach aphid (Myzus persicae)", 100],
  ["C[C@H](NC(=O)c1cc(C2CC2)cc(C(F)(F)F)c1)c1ncnn1-c1ccc(C#N)cn1", "green peach aphid (Myzus persicae)", 100],
  ["C[C@H](NC(=O)c1cc(OC(F)(F)F)cc(C2CC2)c1)c1ncnn1-c1ccccn1", "green peach aphid (Myzus persicae)", 90],
  ["C[C@H](NC(=O)c1cc(Cl)cc(C2(C#N)CC2)c1)c1ncnn1-c1cc(C#N)ccn1", "green peach aphid (Myzus persicae)", 90],
  ["Cc1nc([C@H](C)NC(=O)c2cc(C(F)(F)F)n(C)n2)n(-c2ncccn2)n1", "green peach aphid (Myzus persicae)", 90],
  ["Cc1nc([C@H](C)NC(=O)c2cc(C)n(C)n2)n(-c2ccc(C#N)cn2)n1", "green peach aphid (Myzus persicae)", 90]
]}

----------
We begin with a simple list: items and their reported pest or weed control at 500 g/ha.
# Test system: Rhipicephalus microplus larvae (strain Parkhurst, resistant against synthetic pyrethroids)
# Method Notes: Rhipicephalus (Boophilus) microplus in-vitro contact test, larval cattle tick
# Assay type: in vivo
# Assay Setup: application rate 5 pg/cm^2 (=500 g/ha), after 48 hours, read-out: activity (efficacy: larvae dead or moribund)
Parameter Measured: pest or weed control at 500 g/ha (%)

{"columns": ["Test Smiles", "Parameter Measured", "Unit Info", "Experimental Result"],
 "data": [
  ["C[C@H](NC(=O)c1cc(Cl)cc(S(=O)(=O)C2CC2)c1)c1nc(C2CC2)nn1-c1ccc(Cl)cn1", "pest or weed control at 500 g/ha", "%", 100],
  ["Cc1nc([C@H](C)NC(=O)c2cc(C(F)F)cc(C3CC3)c2)n(-c2ccc(C#N)cn2)n1", "pest or weed control at 500 g/ha", "%", 100],
  ["C[C@H](NC(=O)c1cc(C#N)cc(S(C)(=O)=O)c1)c1ncnn1-c1ccc(C#N)cn1", "pest or weed control at 500 g/ha", "%", 80],
  ["CCS(=O)(=O)c1cc(Cl)cc(C(=O)N[C@@H](C)c2nc(C3CC3)nn2-c2ccc(C#N)cn2)c1", "pest or weed control at 500 g/ha", "%", 100],
  ["C[C@H](NC(=O)c1cc(Br)cc(C2CC2)c1)c1ncnn1-c1ccc(C#N)cn1", "pest or weed control at 500 g/ha", "%", 100],
  ["C[C@H](NC(=O)c1cc(C(F)(F)F)cc(S(C)(=O)=O)c1)c1ncnn1-c1ncccn1", "pest or weed control at 500 g/ha", "%", 80],
  ["C[C@H](NC(=O)c1cc(Cl)cc(S(=O)(=O)C(F)F)c1)c1ncnn1-c1ccc(C#N)cn1", "pest or weed control at 500 g/ha", "%", 100],
  ["C[C@H](NC(=O)c1cc(Br)cc(S(C)(=O)=O)c1)c1ncnn1-c1ccc(Cl)cn1", "pest or weed control at 500 g/ha", "%", 100],
  ["C[C@H](NC(=O)c1cc(Cl)cc(S(=O)(=O)CC(F)(F)F)c1)c1nc(C2CC2)nn1-c1ncc(Cl)cn1", "pest or weed control at 500 g/ha", "%", 90],
  ["COc1nc([C@H](C)NC(=O)c2cc(C(F)F)cc(C3CC3)c2)n(-c2ccc(C#N)cn2)n1", "pest or weed control at 500 g/ha", "%", 100],
  ["Cc1nc([C@H](C)NC(=O)c2cc(Cl)cc(S(=O)(=O)C(F)F)c2)n(-c2ccc(Cl)cn2)n1", "pest or weed control at 500 g/ha", "%", 100]
]}
